assay: in vitro; settings: human
CC50 reference

Recorded results for 2 compounds are shown here.
compound="C[C@H](NC(=O)C(F)(F)F)C(=O)N(C)[C@@H](Cc1ccc(F)cc1)C(=O)N1C[C@@]2(C[C@H]1C#N)Oc1cccnc1NC2=O [Compound 181]" test_value="> 1000 nM"
compound="CN(C(=O)[C@H](CC1CC1)NC(=O)C(F)(F)F)[C@@H](CC1CC1)C(=O)N1C[C@@]2(C[C@H]1C#N)Oc1cnccc1NC2=O [Compound 73]" test_value="> 1000 nM"

API: the following record is the query input.
CC50 for CN(C(=O)[C@H](CC1CC1)NC(=O)c1ccc(F)cc1)[C@@H](CC1CC1)C(=O)N1C[C@@]2(C[C@H]1C#N)Oc1ccccc1CNC2=O [Compound 161] is > 1000 nM

Data provenance is patent US20240199647A1.
